Cited source: patent US9796711B2

system_tested: CFTR ΔF508 (Homo sapiens, UniProt P13569, DEL508-508)
Construct: bronchial epithelial cells isolated from CF patients homozygous for the CFTR ΔF508 mutation; McGill University; Asterand; University of North Carolina hAEC-CF; host or cells: primary human bronchial epithelial cells from CF patients homozygous for ΔF508
Sequence (P13569 with tags, fused parts or gaps DEL508-508): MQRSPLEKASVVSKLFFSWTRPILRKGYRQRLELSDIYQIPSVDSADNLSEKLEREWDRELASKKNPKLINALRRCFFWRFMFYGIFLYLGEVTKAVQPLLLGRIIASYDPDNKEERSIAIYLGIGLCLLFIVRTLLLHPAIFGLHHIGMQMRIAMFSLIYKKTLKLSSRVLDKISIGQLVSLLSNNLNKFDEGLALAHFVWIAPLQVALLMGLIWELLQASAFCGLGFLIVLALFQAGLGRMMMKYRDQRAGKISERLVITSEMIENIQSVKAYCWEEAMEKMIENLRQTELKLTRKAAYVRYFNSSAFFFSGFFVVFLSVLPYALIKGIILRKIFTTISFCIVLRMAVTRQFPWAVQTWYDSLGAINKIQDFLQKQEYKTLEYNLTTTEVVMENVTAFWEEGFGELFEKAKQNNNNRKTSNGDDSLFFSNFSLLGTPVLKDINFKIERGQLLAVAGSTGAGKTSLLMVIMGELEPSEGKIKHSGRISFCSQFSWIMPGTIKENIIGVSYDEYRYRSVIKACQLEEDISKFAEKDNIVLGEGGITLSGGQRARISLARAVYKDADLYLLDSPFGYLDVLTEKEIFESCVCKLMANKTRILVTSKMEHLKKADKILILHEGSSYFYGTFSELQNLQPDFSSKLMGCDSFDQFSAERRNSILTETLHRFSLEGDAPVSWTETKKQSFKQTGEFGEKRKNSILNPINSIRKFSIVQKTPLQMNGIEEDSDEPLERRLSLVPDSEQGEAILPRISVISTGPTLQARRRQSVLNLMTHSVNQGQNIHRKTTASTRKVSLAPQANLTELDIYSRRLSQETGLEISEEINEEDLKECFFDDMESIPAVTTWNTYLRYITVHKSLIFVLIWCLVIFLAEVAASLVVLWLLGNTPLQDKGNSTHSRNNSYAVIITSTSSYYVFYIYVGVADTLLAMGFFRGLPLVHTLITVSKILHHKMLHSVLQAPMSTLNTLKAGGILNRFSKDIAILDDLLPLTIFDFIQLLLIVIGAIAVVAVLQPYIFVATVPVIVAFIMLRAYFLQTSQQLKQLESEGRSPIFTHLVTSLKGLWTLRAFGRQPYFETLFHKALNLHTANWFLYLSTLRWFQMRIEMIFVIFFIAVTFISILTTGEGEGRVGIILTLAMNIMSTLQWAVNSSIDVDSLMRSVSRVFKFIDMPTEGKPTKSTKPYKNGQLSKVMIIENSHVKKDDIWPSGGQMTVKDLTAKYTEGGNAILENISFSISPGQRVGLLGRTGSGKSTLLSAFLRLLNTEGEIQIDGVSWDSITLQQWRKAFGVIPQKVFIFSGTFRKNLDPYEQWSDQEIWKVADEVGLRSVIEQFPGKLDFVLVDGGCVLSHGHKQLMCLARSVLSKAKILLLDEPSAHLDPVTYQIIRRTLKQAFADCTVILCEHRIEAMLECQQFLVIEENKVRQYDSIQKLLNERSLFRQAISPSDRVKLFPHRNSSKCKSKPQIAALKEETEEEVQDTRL
method_summary: Chronic TECC assay on primary bronchial epithelial cells (corrector, co-corrector and potentiator)
Format: cell-based
stated_conditions: chronic TECC; 3 μM; AUC = full area under the curve upon forskolin stimulation; with co-corrector and potentiator, 24 hours
Parameter threshold = 400%. Response is satisfied when % Activity at 3 μM (AUC) meets or exceeds it, else not satisfied.

molecule="CC(F)(F)c1cccc(-n2nc(C3CCC3)c3c(N4CCC(N5CCOCC5)CC4)cc(C(=O)O)nc32)c1 [compound 915]" system_tested="CFTR ΔF508 (Homo sapiens, UniProt P13569, DEL508-508)" group_label=satisfied
molecule="O=C(O)c1cc(N2CCC(N3CCC(O)CC3)CC2)c2c(C3CCC3)nn(-c3ccc(F)cc3)c2n1 [compound 898]" system_tested="CFTR ΔF508 (Homo sapiens, UniProt P13569, DEL508-508)" group_label="not satisfied"
molecule="CC(C)Oc1cccc(-n2nc(C3CCC3)c3c(N4CCC(N5CCOCC5)CC4)cc(C(=O)O)nc32)n1 [compound 924]" system_tested="CFTR ΔF508 (Homo sapiens, UniProt P13569, DEL508-508)" group_label="not satisfied"
molecule="O=C(O)c1cc(N2CCC(CN3CCCC3)CC2)c2c(C3CCC3)nn(-c3ccccc3)c2n1 [compound 557]" system_tested="CFTR ΔF508 (Homo sapiens, UniProt P13569, DEL508-508)" group_label="not satisfied"
molecule="O=C(O)c1cc(N2CCC(N3CCOCC3)CC2)c2c(C3CCC3)nn(-c3cccc(OC(F)F)c3)c2n1 [compound 910]" system_tested="CFTR ΔF508 (Homo sapiens, UniProt P13569, DEL508-508)" group_label=satisfied
